Endpoint Name: melting point

Sample records with melting point:
- Compound: "Cc1cc(-c2nncc3c(C(C)(C)C)c(O)nn23)no1"
  melting point: "275 to 278 °C"
- Compound: "COc1cc(OC)c2c(=O)cc(-c3ccc(N(C)C)cc3)oc2c1C1=CCN(C)CC1"
  melting point: "148 to 150 °C"

Provide measured melting point value, entry: O=C(O)c1cn(-c2ccc(F)cc2F)c2c(F)c(N3Cc4ccccc4C3)c(F)cc2c1=O
264 to 268 °C

Tell us which melting point value is on record for Cc1noc(NS(=O)(=O)c2ccccc2N)c1C
116 to 118 °C

For the compound CCOC(=O)c1ccc(C)c(Nc2nccc(-c3cccnc3)n2)c1 , give its reported melting point.
95 to 96 °C

Tell me its melting point given CCC(O)(c1ccc(F)cc1)c1ccc(OCc2cccc(C)n2)cc1 (stereo not given) as the entry.
103 to 104 °C

Annotate the compound CC(C)(C)OC(=O)[C@@H]1CC[C@@H]2CN1C(=O)N2OCc1ccccc1 with its measured melting point.
83 °C

Origin of values: a melting point compilation (Tetko et al.; mined from patent text by program, amines drawn as free bases though some values may be those of a salt)
